Sequence of the target: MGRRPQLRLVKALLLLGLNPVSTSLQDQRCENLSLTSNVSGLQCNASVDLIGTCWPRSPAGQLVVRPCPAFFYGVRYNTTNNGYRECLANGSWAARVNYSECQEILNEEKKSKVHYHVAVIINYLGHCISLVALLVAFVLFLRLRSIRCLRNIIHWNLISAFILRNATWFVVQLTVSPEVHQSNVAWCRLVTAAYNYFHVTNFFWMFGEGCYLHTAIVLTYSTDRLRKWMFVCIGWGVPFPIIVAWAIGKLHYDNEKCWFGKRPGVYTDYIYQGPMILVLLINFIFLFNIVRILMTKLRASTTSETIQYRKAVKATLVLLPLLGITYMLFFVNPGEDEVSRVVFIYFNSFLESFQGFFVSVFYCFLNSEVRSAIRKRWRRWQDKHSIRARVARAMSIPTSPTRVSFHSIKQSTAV
EXPERIMENTAL READOUT: Ki

- CHEMICAL SMILES: "CCC[CH2][Sn]([CH2]CCC)([CH2]CCC)[c]1cc(Cl)c(Nc2nc(C)nc(N(CCC)CC3CC3)c2Cl)c(Cl)c1"
  REPORTED: "3 nM"
